# test_name: Confirmation assay for measurement of the activity of small molecule inhibitors on Zika virus induced Caspase-3 activity in human iPSC derived neural progenitor cells (hNPCs)
# condition_summary: hNPC ZIKV-induced caspase-3/7, Caspase-Glo luminescence, 6 h; series mostly up to 46.1 µM
Results filed as inconclusive are left out. The source made the active and inactive calls. Calls follow the shape of the dose curve; as a rule, active = well fitted inhibition curve with a large enough effect; inconclusive = small, poorly fitted or top-dose-only effect; inactive = no such curve, though single readings can be large or run the other way.
assay_metric: Potency

Reference set, count: 5
compound | Potency
Oc1cc(O)cc(/C=C/c2ccc(O)c(O)c2)c1 | 4.89 µM (active)
CC=CC[C@@H](C)C(=O)[C@H]1C(=O)N[C@@H](C(C)C)C(=O)N(C)CC(=O)N(C)[C@@H](CC(C)C)C(=O)N[C@@H](C(C)C)C(=O)N(C)[C@@H](CC(C)C)C(=O)N[C@@H](C)C(=O)N[C@H](C)C(=O)N(C)[C@@H](CC(C)C)C(=O)N(C)[C@@H](CC(C)C)C(=O)N(C)[C@@H](C(C)C)C(=O)N1C | inactive
CC(=O)Nc1ccc([C@H](C)C(=O)Nc2ncc(C(C)C)s2)cc1 | 17.3 µM (active)
Cc1ccc(O)c(N=Nc2ccccc2)n1 | 1.23 µM (active)
COc1ccnc2c1CCCCC2S(=O)c1nc2ccccc2[nH]1 (stereo unspecified) | inactive

# next compound below
Fill in reported Potency for this entry: O=C(O)[C@@H](c1ccc(OCc2ccc3ccccc3n2)cc1)C1CCCC1 6.9 µM (active)

* * *

# test_name: Confirmation assay for measurement of the activity of small molecule inhibitors on Zika virus induced Caspase-3 activity in human iPSC derived neural progenitor cells (hNPCs)
# condition_summary: hNPC ZIKV-induced caspase-3/7, Caspase-Glo luminescence, 6 h; series mostly up to 46.1 µM
Records with an inconclusive call do not appear. Active and inactive are the calls of the source. Calls follow the shape of the dose curve; as a rule, active = well fitted inhibition curve with a large enough effect; inconclusive = small, poorly fitted or top-dose-only effect; inactive = no such curve, though single readings can be large or run the other way.
Respond only with the outcome that fits, drawn from True = active, False = inactive

Sample answers from the record:
molecule | category_label
NC(=O)c1cccc2[nH]c(-c3ccc([C@H]4CCCN4)cc3F)nc12 | True
O=C(c1ccccc1)c1ccc2n1CCC2C(=O)O (configuration not stated) | True
O=S(=O)(O)CCSSCCS(=O)(=O)O | False

Query: recorded result category for O=C(Nc1ccc(C(=O)O)c(O)c1)c1ccccc1 in this test True

Query: recorded result category for CC1(C)Cc2c(sc(NC(=S)NC(=O)c3ccccc3)c2C(=O)O)CO1 in this test False

Query: recorded result category for CC(=O)OC(C)OC(=O)C(C)c1ccc(-c2ccccc2)c(F)c1 (configuration not stated) in this test False

Query: recorded result category for CC[C@@]1(O)C[C@H](O[C@H]2C[C@H](N(C)C)[C@H](O[C@H]3C[C@H](O)[C@H](O[C@H]4CCC(=O)[C@H](C)O4)[C@H](C)O3)[C@H](C)O2)c2c(cc3c(c2O)C(=O)c2c(O)cccc2C3=O)[C@@H]1C(=O)OC in this test False

Query: recorded result category for NC1CCC(Nc2nc(Nc3ccc(C(=O)N4CCCCC4)cc3)c3ncn(-c4cccc(F)c4)c3n2)CC1 (configuration not stated) in this test False

* * *

# test_name: Confirmation assay for measurement of the activity of small molecule inhibitors on Zika virus induced Caspase-3 activity in human iPSC derived neural progenitor cells (hNPCs)
# condition_summary: hNPC ZIKV-induced caspase-3/7, Caspase-Glo luminescence, 6 h; series mostly up to 46.1 µM
Records with an inconclusive call do not appear. Active and inactive are the calls of the source. The call rests on the fitted dose curve; in most records, active means well fitted inhibition curve with a large enough effect; inconclusive means small, poorly fitted or top-dose-only effect; inactive means no such curve, though single readings can be large or run the other way.
assay_metric: Potency

compound | Potency
CC(C)c1ccc2oc3nc(N)c(C(=O)O)cc3c(=O)c2c1 | 1.73 µM (active)
O=C(O)[C@H](CC(=O)N1C[C@@H]2CCCC[C@H]2C1)Cc1ccccc1 | inactive
CCCCCNC(=O)N1CCC(CN(Cc2ccc(Cl)cc2)Cc2ccc([N+](=O)[O-])s2)C1 (centres undefined) | inactive
C[C@@H](O[C@H]1OCCN(Cc2n[nH]c(=O)[nH]2)[C@@H]1c1ccc(F)cc1)c1cc(C(F)(F)F)cc(C(F)(F)F)c1 | inactive
Oc1ccc(/C=C/c2cc(O)cc(O)c2)cc1 | 6.15 µM (active)

Fill in reported Potency for this entry: O=C(Nc1ccc([N+](=O)[O-])cc1Cl)c1cc(Cl)ccc1O 1.73 µM (active)

Fill in reported Potency for this entry: Cc1c(NC(=O)c2ccc(C(C)(C)C)cc2)cccc1-c1cn(C)c(=O)c(Nc2ccc(C(=O)N3CCOCC3)cc2)n1 inactive

Fill in reported Potency for this entry: O=C(/C=C/c1ccc(O)cc1)c1ccc(O)cc1O 1.73 µM (active)

Fill in reported Potency for this entry: COc1ccc(-c2cc(=O)c3c(O)cc(O)cc3o2)cc1O 9.75 µM (active)

Fill in reported Potency for this entry: CS(=O)(=O)c1ccc(-c2cn3ccccc3n2)cc1 3.88 µM (active)

Fill in reported Potency for this entry: CCCCCCCCCCCC(=O)[O][Sn]([CH2]CCC)([CH2]CCC)[O]C(=O)CCCCCCCCCCC inactive

Fill in reported Potency for this entry: Nc1ccc2c(c1)CN1C(=O)c3ccccc3C1=N2 1.9 µM (active)

Fill in reported Potency for this entry: C[C@@H]1CCN(C(=O)CC#N)C[C@H]1N(C)c1ncnc2[nH]ccc12 inactive

Fill in reported Potency for this entry: C=CCCCCCCCCC(=O)O inactive

* * *

# test_name: Confirmation assay for measurement of the activity of small molecule inhibitors on Zika virus induced Caspase-3 activity in human iPSC derived neural progenitor cells (hNPCs)
# condition_summary: hNPC ZIKV-induced caspase-3/7, Caspase-Glo luminescence, 6 h; series mostly up to 46.1 µM
Results filed as inconclusive are left out. Active and inactive are the calls of the source. Calls come from the whole dose curve; as a rule, active = well fitted inhibition curve with a large enough effect; inconclusive = small, poorly fitted or top-dose-only effect; inactive = no such curve, though single readings can be large or run the other way.
assay_metric: Potency

Reference set, count: 4
molecule | Potency
COc1cc2nc(N3CCN(C(=O)C4CCCO4)CC3)nc(N)c2cc1OC (stereo not given) | 9.75 µM (active)
Nc1ncnc2c1ncn2[C@@H]1O[C@@H](CO)[C@H](O)[C@H]1O | inactive
CN(C)c1cc(NC(=O)CNC(C)(C)C)c(O)c2c1C[C@@H]1C[C@H]3[C@H](N(C)C)C(=O)C(C(N)=O)=C(O)[C@@]3(O)C(=O)C1=C2O | inactive
O=C1c2ccccc2-[n+]2ccc3c([nH]c4ccccc43)c21 | 9.75 µM (active)

Fill in reported Potency for this entry: O=C(Nc1ccc(OC(F)(F)F)cc1)c1sccc1NCc1ccnc2ccccc12 6.15 µM (active)

Fill in reported Potency for this entry: COc1cc2nc(-c3ccc(N4CCN(C)CC4)cc3)nc(NCCN3CCOCC3)c2cc1OC inactive

Fill in reported Potency for this entry: CC(=O)Oc1ccccc1C(=O)Nc1ncc([N+](=O)[O-])s1 1 µM (active)

Fill in reported Potency for this entry: COc1ccc(C=CC(=O)Nc2ccccc2C(=O)O)cc1OC 17.3 µM (active)

Fill in reported Potency for this entry: CC(C(=O)O)c1ccc(-c2ccccc2)c(F)c1 (stereo not given) inactive

Fill in reported Potency for this entry: O=c1oc2cc(O)ccc2s1 inactive

Fill in reported Potency for this entry: Nc1ccc(N=Nc2ccccc2)c(N)n1 15.5 µM (active)

Fill in reported Potency for this entry: O=S(=O)(O)c1ccc2nc(-c3ccccc3)[nH]c2c1 1.23 µM (active)

Fill in reported Potency for this entry: O=C(O)CCC(=O)c1ccc(-c2ccccc2)cc1 19.5 µM (active)

Fill in reported Potency for this entry: N#C/C(=C\c1ccc(O)c(O)c1)C(=O)Nc1ccccc1 15.5 µM (active)

Fill in reported Potency for this entry: CCC(C(=O)O)c1ccc(N2Cc3ccccc3C2=O)cc1 (stereo not given) 5.48 µM (active)
